system: TG 180 strain; experiment: In vivo antitumoral test with the mouse, first experiment; design: species or system SWISS mouse; settings: 15 mice per batch; compounds I to V alternately with CP and interferon

Smiles Representation | System Name | number of survivors (tumor +)
CCCC(=O)OC[C@@H](O)[C@H]1O[C@@H]2OC(C)(C)O[C@@H]2[C@H]1O | TG 180 strain | 3
CCCC(=O)OC[C@H]1O[C@@H]2OC(C)(C)O[C@@H]2[C@H]2OC(C)(C)O[C@H]21 | TG 180 strain | 0
CCCC(=O)OC[C@@H](OC(=O)CCC)[C@H]1O[C@@H]2OC(C)(C)O[C@@H]2[C@H]1OC(=O)CCC | TG 180 strain | 0
CCCC(=O)O[C@@H]1[C@H]2OC(C)(C)O[C@H]2O[C@@H]1[C@H]1COC(C)(C)O1 | TG 180 strain | 3
CCCC(=O)O[C@@H]1[C@H]2OC(C)(C)O[C@H]2O[C@@H]1[C@H](O)CO | TG 180 strain | 0

* * *

assay: Acute toxicity, SWISS mouse (median lethal dose); details: in vivo, oral route, read-out: Median lethan dose
List of LD50 values.

Compound | LD50
CCCC(=O)OC[C@H]1O[C@@H]2OC(C)(C)O[C@@H]2[C@H]2OC(C)(C)O[C@H]21 | > 8000 mg/kg
CCCC(=O)OCC(O)CO (stereo not shown) | > 8000 mg/kg
CCCC(=O)O[C@@H]1[C@H]2OC(C)(C)O[C@H]2O[C@@H]1[C@H](O)CO | > 8000 mg/kg
CCCCCCCCCCCCCCCC(=O)OCC(COC(=O)CCC)OC(=O)CCC (stereo not shown) | > 8000 mg/kg

* * *

List of number of survivors (tumor -) values.
system: TG 180 strain; assay: In vivo antitumoral test with the mouse, first experiment; design: species or system SWISS mouse; conditions: 15 mice per batch; compounds I to V alternately with CP and interferon

Smiles Representation | number of survivors (tumor -)
CCCC(=O)O[C@@H]1[C@H]2OC(C)(C)O[C@H]2O[C@@H]1[C@H](O)CO | 9
CCCC(=O)O[C@@H]1[C@H]2OC(C)(C)O[C@H]2O[C@@H]1[C@H]1COC(C)(C)O1 | 7
CCCC(=O)OC[C@@H](OC(=O)CCC)[C@H]1O[C@@H]2OC(C)(C)O[C@@H]2[C@H]1OC(=O)CCC | 3
CCCC(=O)OC[C@H]1O[C@@H]2OC(C)(C)O[C@@H]2[C@H]2OC(C)(C)O[C@H]21 | 3
CCCC(=O)OC[C@@H](O)[C@H]1O[C@@H]2OC(C)(C)O[C@@H]2[C@H]1O | 8

* * *

assay: Solubility in water; format: physicochemical; conditions: water; room temperature

Compound | solubility
CCCC(=O)O[C@@H]1[C@H]2OC(C)(C)O[C@H]2O[C@@H]1[C@H](O)CO [Compound II] | > 100 mg/mL

* * *

Assay: Acute toxicity, SWISS mouse (median lethal dose)
Conditions: in vivo, ip, read-out: Median lethan dose
Method: The toxicities which are acute with the SWISS mouse and chronic with the albino rat are determined according to the usual standardized protocols.
List of LD50 values.

Compound | Reading Qualifier | LD50 / mg/kg
CCCCCCCCCCCCCCCC(=O)OCC(COC(=O)CCC)OC(=O)CCC (centres unmarked) | > | 8000
CCCC(=O)OC[C@@H](O)[C@H]1O[C@@H]2OC(C)(C)O[C@@H]2[C@H]1O | = | 3000
CCCC(=O)OC[C@H]1OC(OC(=O)CCC)[C@H](OC(=O)CCC)[C@@H](OC(=O)CCC)[C@@H]1OC(=O)CCC (some centres unmarked) | > | 8000
CCCC(=O)O[C@@H]1[C@H]2OC(C)(C)O[C@H]2O[C@@H]1[C@H](O)CO | = | 4200
CCCC(=O)OC[C@H]1OC(OC(=O)CCC)[C@H](OC(=O)CCC)[C@@H](OC(=O)CCC)[C@H]1OC(=O)CCC (some centres unmarked) | > | 8000
CCCC(=O)OC[C@@H](OC(=O)CCC)[C@H]1O[C@@H]2OC(C)(C)O[C@@H]2[C@H]1OC(=O)CCC | > | 8000
CCCC(=O)OCC1COC(C)(C)O1 (centres unmarked) | = | 5400
CCCC(=O)OCC(O)CO (centres unmarked) | = | 2250
CCCCCCCCCCCCCCCC(=O)OCC(COC(=O)CCC)OC(=O)CCCCCCCCCCCCCCC (centres unmarked) | > | 2000
CCCC(=O)OC[C@H]1O[C@@H]2OC(C)(C)O[C@@H]2[C@H]2OC(C)(C)O[C@H]21 | = | 2500
CCCC(=O)O[C@@H]1[C@H]2OC(C)(C)O[C@H]2O[C@@H]1[C@H]1COC(C)(C)O1 | = | 1750
